assay: Binding affinity to human HSP70 at 25 degC by surface plasmon resonance assay
Kindly state pKd for each of the entries shown.
Hey, just a heads up that pKd is the negative log base 10 of the concentration in molar.

Measured pKd, CSc1ncc(CN2CCC(N(C)Cc3ccc(C)cc3)CC2)s1 : 6.70

Measured pKd, CSc1ncc(CN2CCC(N(C)Cc3cccc(Cl)c3)CC2)s1 : 6.61

Measured pKd, CSc1nccc(N2CCC(N(C)Cc3ccc(C#N)cc3)CC2)n1 : 6.61

Measured pKd, N#Cc1ccc(COC[C@H]2O[C@@H](n3c(NCc4ccc(Cl)c(Cl)c4)nc4c(N)ncnc43)[C@H](O)[C@@H]2O)cc1 : 6.69

Measured pKd, CSc1nccc(N2CCC(N(C)Cc3ccc(F)cc3)CC2)n1 : 6.69

Measured pKd, COc1nccc(N2CCC(N(C)Cc3ccc(F)cc3)CC2)n1 : 6.55
